# TARGET ENTITY: hiCE (Homo sapiens, UniProt O00748)
# Sequence (O00748 27-559): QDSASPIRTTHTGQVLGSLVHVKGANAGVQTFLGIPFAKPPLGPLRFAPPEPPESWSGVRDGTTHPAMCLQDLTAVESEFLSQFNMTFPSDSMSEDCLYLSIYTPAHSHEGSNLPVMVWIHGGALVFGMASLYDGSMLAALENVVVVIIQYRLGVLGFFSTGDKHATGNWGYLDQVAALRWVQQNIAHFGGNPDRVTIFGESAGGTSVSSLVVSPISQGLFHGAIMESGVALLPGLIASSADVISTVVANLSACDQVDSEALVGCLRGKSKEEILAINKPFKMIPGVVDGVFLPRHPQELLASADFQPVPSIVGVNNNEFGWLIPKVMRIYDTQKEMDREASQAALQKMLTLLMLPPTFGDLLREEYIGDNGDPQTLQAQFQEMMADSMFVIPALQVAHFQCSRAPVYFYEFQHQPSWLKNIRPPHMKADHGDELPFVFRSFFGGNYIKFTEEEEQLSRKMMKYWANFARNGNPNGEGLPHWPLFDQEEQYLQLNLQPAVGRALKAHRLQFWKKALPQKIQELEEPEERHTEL
# ASSAY PROTOCOL: hiCE inhibition, o-nitrophenylacetate hydrolysis
# Format: biochemical
# CONDITION PARAMETERS: read-out: IC50 hiCE; substrate o-nitrophenylacetate
EXPERIMENTAL READOUT: IC50 (µM)
Give the value, in units of µM, as a plain number.

(Q) Fill blank: measured IC50 of the compound `c1ccc2c(NCCCCCCCNc3c4c(nc5ccccc35)CCCC4)c3c(nc2c1)CCCC3` is ____.
(A) 23.7
